# key: entry, value: ε
- assay.protocol: UV absorbance spectrum in solution (λmax, λcrit, extinction coefficients)
- Format: physicochemical
- experimental.setup: molar extinction coefficient; in M-1 cm-1 (unit assumed)
assay.metric: ε

molecule="CCCCC(CC)COC(=O)c1cccc(N(/C=C(/C(=O)C(F)(F)F)c2ccccc2)CC)c1 (stereo not shown) [Compound 232]" experimental_result=20462
molecule="O=C(/C(=C\\N1CCc2cc(F)ccc21)c1ccccc1)C(F)(F)F [Compound 198]" experimental_result=29804
molecule="CCN(/C=C(\\C(=O)C(F)(F)F)c1ccccc1)CC [Compound 144]" experimental_result=23306
molecule="Cc1ccccc1C(=O)/C(=C/N1CCc2ccccc21)c1ccccc1 [Compound 251]" experimental_result=33598
molecule="CC1CCc2ccccc2N1/C=C(\\C(=O)C(F)(F)F)c1ccccc1 (stereo not shown) [Compound 211]" experimental_result=28907
molecule="COC(=O)c1ccc2c(c1)CCN2/C=C(/C(=O)c1ccccc1)c1ccccc1 [Compound 247]" experimental_result=41977
molecule="CN(/C=C(\\C(=O)C(F)(F)F)c1ccccc1)c1ccc([N+](=O)[O-])cc1 [Compound 219]" experimental_result=24860
molecule="O=C(/C(=C\\N1CCCN(/C=C(\\C(=O)C(F)(F)F)c2ccccc2)c2ccccc21)c1ccccc1)C(F)(F)F [Compound 224]" experimental_result=37546
molecule="CCOC(=O)C(=O)/C(=C/N(CC)CC)c1ccccc1 [Compound 260]" experimental_result=19983
molecule="CCN(CCOC(=O)c1ccc2c(c1)CCN2/C=C(\\C(=O)C(F)(F)F)c1ccccc1)C(=O)OC(C)(C)C [Compound 218]" experimental_result=44357
molecule="CCN(/C=C(\\C(=O)c1c(F)c(F)c(F)c(F)c1F)c1ccccc1)CC [Compound 203]" experimental_result=22532
molecule="CCCCC(CC)COC(=O)c1ccc2c(c1)CCN2C=C(C(=O)C(C)(C)C)c1ccccc1 (stereo not shown) [Compound 300]" experimental_result=54826
molecule="CN(/C=C(\\C(=O)C(F)(F)F)c1ccccc1)c1ccccc1 [Compound 183]" experimental_result=23153
molecule="CCCCC(CC)COc1cccc(N(/C=C(\\C(=O)C(F)(F)F)c2ccccc2)CC)c1 (stereo not shown) [Compound 221]" experimental_result=21876
molecule="CCCCN(/C=C(/C(=O)C(F)(F)F)c1ccccc1)c1ccccc1 [Compound 234]" experimental_result=24440
molecule="O=C(OCCCOC(=O)c1ccc2c(c1)CCN2/C=C(\\C(=O)C(F)(F)F)c1ccccc1)c1ccc2c(c1)CCN2/C=C(\\C(=O)C(F)(F)F)c1ccccc1 [Compound 228]" experimental_result=89042
molecule="O=C(/C(=C\\N1CCc2cc([N+](=O)[O-])ccc21)c1ccccc1)C(F)(F)F [Compound 206]" experimental_result=50315
molecule="CCCN(/C=C(/C(=O)C(F)(F)F)c1ccccc1)c1ccccc1 [Compound 233]" experimental_result=24467
molecule="O=C(/C(=C\\N1CCc2ccccc2C1)c1ccccc1)C(F)(F)F [Compound 194]" experimental_result=22743
molecule="N#CCC(=O)/C(=C\\N1CCc2ccccc21)c1ccccc1 [Compound 249]" experimental_result=31385
molecule="CCN(/C=C(\\C(C)=O)c1ccccc1)CC [Compound 149]" experimental_result=14973
molecule="CCCCC(CC)COC(=O)c1ccc(N(/C=C(\\C(=O)C(F)(F)F)c2ccccc2)c2ccccc2)cc1 (stereo not shown) [Compound 230]" experimental_result=27313
molecule="CCN(/C=C(\\C(=O)C(F)(F)F)c1ccccc1)c1ccccc1C [Compound 177]" experimental_result=23543
molecule="O=C(/C(=C\\N1CCc2ccc([N+](=O)[O-])cc21)c1ccccc1)C(F)(F)F [Compound 202]" experimental_result=32693
molecule="Cc1cccc2c1N(/C=C(\\C(=O)C(F)(F)F)c1ccccc1)CC2 [Compound 199]" experimental_result=32273
molecule="CCCCC(CC)COC(=O)c1ccc2c(c1)CCN2/C=C(\\C(=O)C(F)(F)F)c1ccccc1 (stereo not shown) [Compound 215]" experimental_result=50515
molecule="Cc1ccc(C(=O)/C(=C/N2CCc3ccccc32)c2ccccc2)cc1 [Compound 272]" experimental_result=30075
molecule="CCCCC(CC)COC(=O)c1ccc2c(c1)CCN2/C=C(/C(=O)C(C)(C)C)c1ccc(Br)cc1 (stereo not shown) [Compound 309]" experimental_result=42050
